assay: Ratio of drug concentration in male ICR mouse brain to plasma at 10 mg/kg, ip measured after 0.25 hrs by LC-MS/MS analysis; type: ADME, organism-based; settings: read-out: BPR
READOUT LABEL: Kp at 0.25 h
In your answer, state the number alone without any accompanying words.

Q: Tell me measured Kp at 0.25 h for COc1cccc(-c2cc(N3CCCc4ccccc4C3)nc(N)n2)c1 please.
Result: 3.1

* * *

target: Sodium channel protein type 2 subunit alpha (Homo sapiens); assay: Inhibition of human Nav1.2 expressed in HEK293 cells assessed as test to control ratio at 1 uM measured after 5 mins by whole cell voltage clamp electrophysiological analysis; assay type: cell-based
# reported T/C; entries follow

Q: Report T/C under test system Sodium channel protein type 2 subunit alpha (Homo sapiens) for Nc1nc(-c2ccc(Oc3ccccc3)cc2)cc(N2CCCc3ccccc3C2)n1 .
Result: 0.79

* * *

target: Sodium channel protein type 2 subunit alpha (Homo sapiens, UniProt Q99250); assay: Inhibition of human Nav1.2 expressed in HEK293 cells assessed as test to control ratio at 0.1 uM measured after 5 mins by whole cell voltage clamp electrophysiological analysis; type: cell-based
Sequence (Q99250 whole entry, looked up): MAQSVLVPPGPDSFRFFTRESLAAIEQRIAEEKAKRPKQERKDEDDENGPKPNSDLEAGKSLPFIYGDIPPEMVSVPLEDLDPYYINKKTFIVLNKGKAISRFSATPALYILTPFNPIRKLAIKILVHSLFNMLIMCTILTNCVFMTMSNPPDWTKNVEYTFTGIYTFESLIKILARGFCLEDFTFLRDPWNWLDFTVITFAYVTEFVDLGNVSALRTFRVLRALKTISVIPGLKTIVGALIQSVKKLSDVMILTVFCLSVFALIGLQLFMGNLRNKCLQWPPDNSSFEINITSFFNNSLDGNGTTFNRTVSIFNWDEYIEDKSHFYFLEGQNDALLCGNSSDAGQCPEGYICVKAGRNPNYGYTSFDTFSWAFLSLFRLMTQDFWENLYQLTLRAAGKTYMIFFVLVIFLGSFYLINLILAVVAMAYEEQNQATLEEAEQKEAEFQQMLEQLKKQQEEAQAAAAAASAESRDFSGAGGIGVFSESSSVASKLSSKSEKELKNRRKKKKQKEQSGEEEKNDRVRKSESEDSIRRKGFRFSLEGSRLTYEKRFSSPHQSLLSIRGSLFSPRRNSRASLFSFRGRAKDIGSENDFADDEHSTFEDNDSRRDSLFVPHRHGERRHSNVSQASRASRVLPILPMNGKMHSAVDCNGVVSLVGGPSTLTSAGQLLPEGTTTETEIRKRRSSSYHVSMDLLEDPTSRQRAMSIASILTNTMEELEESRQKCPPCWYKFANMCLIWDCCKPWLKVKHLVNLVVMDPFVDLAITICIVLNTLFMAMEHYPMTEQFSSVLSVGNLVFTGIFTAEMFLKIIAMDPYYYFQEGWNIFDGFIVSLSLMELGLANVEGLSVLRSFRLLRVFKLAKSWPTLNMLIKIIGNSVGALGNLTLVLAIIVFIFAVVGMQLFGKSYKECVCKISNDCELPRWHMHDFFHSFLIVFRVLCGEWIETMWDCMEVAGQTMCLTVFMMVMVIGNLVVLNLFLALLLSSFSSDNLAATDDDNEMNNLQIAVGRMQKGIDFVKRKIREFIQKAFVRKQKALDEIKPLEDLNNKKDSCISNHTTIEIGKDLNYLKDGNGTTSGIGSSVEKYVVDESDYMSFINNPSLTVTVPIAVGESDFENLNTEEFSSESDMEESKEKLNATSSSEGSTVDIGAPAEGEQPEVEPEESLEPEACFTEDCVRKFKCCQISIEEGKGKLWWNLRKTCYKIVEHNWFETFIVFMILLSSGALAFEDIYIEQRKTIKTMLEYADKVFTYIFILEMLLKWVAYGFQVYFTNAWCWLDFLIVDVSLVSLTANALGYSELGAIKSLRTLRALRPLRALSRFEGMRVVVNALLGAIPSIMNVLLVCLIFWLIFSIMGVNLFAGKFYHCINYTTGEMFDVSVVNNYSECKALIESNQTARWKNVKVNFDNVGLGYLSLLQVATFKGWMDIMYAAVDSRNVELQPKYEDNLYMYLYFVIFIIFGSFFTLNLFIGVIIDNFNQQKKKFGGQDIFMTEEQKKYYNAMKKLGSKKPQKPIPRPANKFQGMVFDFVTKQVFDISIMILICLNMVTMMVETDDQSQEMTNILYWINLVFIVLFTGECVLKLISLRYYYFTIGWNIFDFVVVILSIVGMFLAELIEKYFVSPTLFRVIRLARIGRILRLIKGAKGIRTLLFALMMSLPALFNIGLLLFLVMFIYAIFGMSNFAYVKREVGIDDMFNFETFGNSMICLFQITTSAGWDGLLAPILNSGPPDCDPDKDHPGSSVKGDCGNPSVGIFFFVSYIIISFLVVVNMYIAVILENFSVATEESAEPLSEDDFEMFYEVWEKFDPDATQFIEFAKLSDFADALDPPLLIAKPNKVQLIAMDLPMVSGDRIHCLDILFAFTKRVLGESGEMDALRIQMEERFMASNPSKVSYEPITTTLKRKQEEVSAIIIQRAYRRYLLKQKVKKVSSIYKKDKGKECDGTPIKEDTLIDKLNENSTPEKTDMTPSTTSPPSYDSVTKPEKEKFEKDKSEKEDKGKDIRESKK
Recorded measurements of T/C, one per entry
// return just the number, without any unit appended

Some entries whose results are on file:
{"COMPOUND": "Nc1nc(-c2ccc(F)cc2)cc(N2CCCc3ccccc3C2)n1", "T/C": 0.9}
{"COMPOUND": "COc1cccc(-c2cc(N3CCCc4ccccc4C3)nc(NS(=O)(=O)c3ccc(F)cc3)n2)c1", "T/C": 0.95}
{"COMPOUND": "COc1cccc(-c2cc(N3CCC4(CCOCC4)C3)nc(N)n2)c1", "T/C": 0.97}
{"COMPOUND": "COc1cccc(-c2cc(N3CCCc4ccc(F)cc4C3)nc(N)n2)c1", "T/C": 0.84}
{"COMPOUND": "COc1cccc(-c2cc(NCCc3ccc4c(c3)OCO4)nc(N)n2)c1", "T/C": 0.86}
{"COMPOUND": "Cc1cccc(-c2cc(N3CCCc4ccccc4C3)nc(N)n2)c1", "T/C": 0.85}
{"COMPOUND": "CCCc1ccc(S(=O)(=O)Nc2nc(-c3cccc(OC)c3)cc(N3CCCc4ccccc4C3)n2)cc1", "T/C": 0.86}
{"COMPOUND": "COc1cccc(-c2cc(N3CCc4nc(Cl)ccc4C3)nc(N)n2)c1", "T/C": 0.89}
{"COMPOUND": "COc1cccc(-c2cc(NCCc3ccc(OC)c(OC)c3)nc(N)n2)c1", "T/C": 0.61}
{"COMPOUND": "COc1cccc(-c2cc(N3CCCc4ccc(OCc5ccccc5)cc4C3)nc(N)n2)c1", "T/C": 0.77}

Q: Respond only with T/C recorded for COc1cccc(-c2cc(N3CCCc4ccc(C)cc4C3)ncn2)c1
Result: 0.8

Q: Tell us which T/C value is on record for COc1cccc(-c2cc(N3CCCc4ccc(C)cc4C3)nc(OC)n2)c1
Result: 0.88

Q: Assign T/C to the following record: COc1cccc(-c2cc(N3CCC(C)c4ccccc4C3)nc(N)n2)c1 (stereo unspecified)
Result: 0.95

Q: Given the compound COc1cccc(-c2cc(N3CC4CC(C3)c3ccccc34)nc(N)n2)c1 , write its reported T/C.
Result: 0.87

Q: Identify T/C associated with the compound COc1cccc(-c2cc(NCc3ccc(OC)c(OC)c3)nc(N)n2)c1
Result: 0.7

Q: Entry COc1cccc(-c2nc(N)nc(N3CCCc4ccc(C)cc4C3)c2F)c1 needs its T/C filled in; supply it.
Result: 0.88

Q: Read the entry COc1cccc(-c2cc(N3CCc4cc(OC)c(OC)cc4C3)nc(N)n2)c1 and write its reported T/C.
Result: 0.67

Q: Tell me its T/C given COc1cccc(-c2cc(N3CCCc4ccc(C)cc4C3)nc(N)n2)c1 as the entry.
Result: 0.39

Q: Indicate its recorded T/C; the compound in question is COc1cccc(-c2cc(N3CCCc4ccccc4C3)nc(N)n2)c1
Result: 0.6

Q: Respond only with T/C recorded for COc1cccc(-c2cc(N3CCc4ccccc4C3)nc(N)n2)c1
Result: 0.68

Q: For the compound COc1cccc(-c2cc(N3CCCc4cc(F)ccc4C3)nc(N)n2)c1 , give its measured T/C value.
Result: 0.39
